Target: Histone deacetylase 4 (Homo sapiens)
Sequence (P56524 whole entry): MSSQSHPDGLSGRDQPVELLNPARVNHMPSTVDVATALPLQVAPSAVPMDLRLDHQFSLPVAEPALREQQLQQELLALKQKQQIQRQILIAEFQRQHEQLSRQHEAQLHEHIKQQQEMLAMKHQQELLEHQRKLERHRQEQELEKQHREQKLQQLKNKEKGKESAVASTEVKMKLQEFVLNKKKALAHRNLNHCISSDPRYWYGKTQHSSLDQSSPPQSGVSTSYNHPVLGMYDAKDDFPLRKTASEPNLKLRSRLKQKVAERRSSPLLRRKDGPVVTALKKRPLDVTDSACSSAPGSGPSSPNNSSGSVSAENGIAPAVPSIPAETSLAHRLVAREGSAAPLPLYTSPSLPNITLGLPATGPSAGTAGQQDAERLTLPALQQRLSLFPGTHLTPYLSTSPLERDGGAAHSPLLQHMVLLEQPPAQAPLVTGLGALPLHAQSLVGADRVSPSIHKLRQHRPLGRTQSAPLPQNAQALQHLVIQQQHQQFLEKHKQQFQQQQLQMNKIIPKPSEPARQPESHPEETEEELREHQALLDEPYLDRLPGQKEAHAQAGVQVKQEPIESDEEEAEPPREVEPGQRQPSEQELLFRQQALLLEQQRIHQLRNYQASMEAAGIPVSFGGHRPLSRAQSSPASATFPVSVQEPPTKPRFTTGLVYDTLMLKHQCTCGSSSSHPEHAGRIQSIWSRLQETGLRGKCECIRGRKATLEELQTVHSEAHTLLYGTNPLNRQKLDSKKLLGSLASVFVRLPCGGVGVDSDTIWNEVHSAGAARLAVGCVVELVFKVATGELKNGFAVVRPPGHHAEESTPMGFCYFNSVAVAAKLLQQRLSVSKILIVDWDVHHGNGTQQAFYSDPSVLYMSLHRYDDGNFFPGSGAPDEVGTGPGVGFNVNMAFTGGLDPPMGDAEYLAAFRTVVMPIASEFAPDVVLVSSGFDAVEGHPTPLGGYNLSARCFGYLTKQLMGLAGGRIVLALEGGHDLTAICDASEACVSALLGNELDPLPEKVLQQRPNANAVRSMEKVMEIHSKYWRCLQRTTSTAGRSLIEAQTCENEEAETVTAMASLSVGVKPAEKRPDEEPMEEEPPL
Experiment: Inhibition of recombinant human N-terminal His6-SUMO-tagged C-terminal SII-tagged HDAC4 expressed in Escherichia coli (BL21) DE3 pLysS cells assessed as residual activity at 50 uM using BocLys(trifluoroacetyl)-AMC as substrate incubated for 30 mins by fluorescence assay relative to control
QUANTITY: Activity (%)

Solved entries:
COMPOUND	QUANTITY	VALUE MEASURED
O=C1NC(=O)/C(=C\c2ccc(OCC(=O)N3N=C(c4ccc(F)cc4)CC3c3ccc(C(F)(F)F)cc3)cc2)S1 (centres undefined)	Activity	9.2
O=C1NC(=O)/C(=C\c2ccc(OCC(=O)N3N=C(c4ccc(F)cc4)CC3c3ccc(F)cc3F)cc2)S1 (centres undefined)	Activity	10
O=C1NC(=O)/C(=C\c2ccc(OCC(=O)N3N=C(c4ccccc4)CC3c3ccc(F)cc3F)cc2)S1 (centres undefined)	Activity	17
O=C1NC(=O)/C(=C\c2ccc(OCC(=O)N3N=C(c4ccc(F)cc4)CC3c3ccco3)cc2)S1 (centres undefined)	Activity	36
O=C1NC(=O)/C(=C\c2ccc(OCC(=O)N3N=C(c4ccccc4)CC3c3ccccc3)cc2)S1 (centres undefined)	Activity	11
O=C1NC(=O)/C(=C\c2ccc(OCC(=O)N3N=C(c4ccc(F)cc4)CC3c3ccccc3)cc2)S1 (centres undefined)	Activity	10
O=C1NC(=O)/C(=C\c2ccc(OCC(=O)N3N=C(c4ccc(F)cc4F)CC3c3ccco3)cc2)S1 (centres undefined)	Activity	22
Cc1ccc(C2CC(c3ccc(F)cc3F)=NN2C(=O)COc2ccc(/C=C3/SC(=O)NC3=O)cc2)cc1 (centres undefined)	Activity	9.4

P = O=C1NC(=O)/C(=C\c2ccc(OCC(=O)N3N=C(c4ccccc4)CC3c3ccc(Cl)c(Cl)c3)cc2)S1 (centres undefined)
Q = O=C1NC(=O)/C(=C\c2ccc(OCC(=O)N3N=C(c4ccc(F)cc4F)CC3c3ccc(F)cc3)cc2)S1 (centres undefined)
Problem: Recorded Activity values differ for P and Q ; which one is higher? Choose, then provide that item's label.
Solution: Q

a = O=C1NC(=O)/C(=C\c2ccc(OCC(=O)N3N=C(c4ccccc4)CC3c3ccccc3Cl)cc2)S1 (centres undefined)
b = Cc1ccc(C2CC(c3ccccc3)=NN2C(=O)COc2ccc(/C=C3/SC(=O)NC3=O)cc2)cc1 (centres undefined)
c = O=C1NC(=O)/C(=C\c2ccc(OCC(=O)N3N=C(c4ccccc4)CC3c3ccc(F)cc3)cc2)S1 (centres undefined)
d = O=C1NC(=O)/C(=C\c2ccc(OCC(=O)N3N=C(c4ccccc4)CC3c3ccc(Br)cc3)cc2)S1 (centres undefined)
Problem: Falling order of Activity, please. I would appreciate it if you listed the labels in the requested order.
Solution: a, d, b, c
